Listed below: IC50 values for each entry.
- system: Flt-3 (Homo sapiens, UniProt P36888)
- Sequence (P36888 563-993): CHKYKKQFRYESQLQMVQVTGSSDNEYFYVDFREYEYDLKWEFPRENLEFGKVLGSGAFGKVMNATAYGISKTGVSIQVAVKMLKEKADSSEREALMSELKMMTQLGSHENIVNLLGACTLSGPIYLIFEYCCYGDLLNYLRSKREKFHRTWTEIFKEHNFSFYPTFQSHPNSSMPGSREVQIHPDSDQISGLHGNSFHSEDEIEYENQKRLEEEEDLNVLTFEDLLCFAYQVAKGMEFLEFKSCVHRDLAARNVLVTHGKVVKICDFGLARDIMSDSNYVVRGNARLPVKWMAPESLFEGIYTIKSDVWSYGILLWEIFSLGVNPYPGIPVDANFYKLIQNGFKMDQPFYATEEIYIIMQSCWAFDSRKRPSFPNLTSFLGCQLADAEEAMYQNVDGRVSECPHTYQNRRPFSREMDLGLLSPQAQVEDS
Give just the number in nM; leave the unit off.

Here are 3 molecules together with their reported answers.
- CNc1cc(Oc2ccc(NC(=O)Nc3ccc(CN(C)C(C)(C)C)c(C(F)(F)F)c3)cc2)ncn1 [Example 34a.1]: 1100
- CN1CCN(Cc2ccc(NC(=O)Nc3ccc(Oc4cc(Cl)ncn4)cc3)cc2C(F)(F)F)CC1: 360
- Nc1nccc(Oc2ccc(NC(=O)Nc3cccc(C(F)(F)F)c3)cc2)n1 [Example 52b]: 80

Next, consider the following molecule.
Req: Provide value of IC50 for this record tested with Flt-3 (Homo sapiens, UniProt P36888): CNc1cc(Oc2ccc(NC(=O)Nc3ccc(CN(C)C)c(C(F)(F)F)c3)cc2)ncn1 [Example 34l.1]
Resp: 620

* * *

measured_metric: melting point

Req: Sample CN1CCN(Cc2cc(NC(=O)Nc3ccc(Oc4cc(Cl)ncn4)cc3)cc(C(F)(F)F)c2)CC1 — what was its melting point?
Resp: 291 to 292 °C

Req: Sample CNc1nccc(Oc2ccc(NC(=O)Nc3ccc(CN4CCN(C(C)(C)C)CC4)c(C(F)(F)F)c3)cc2)n1 — what was its melting point?
Resp: 257 to 258 °C

Req: Sample Cc1nccn1Cc1ccc(NC(=O)Nc2ccc(Oc3cc(Cl)ncn3)cc2)cc1C(F)(F)F — what was its melting point?
Resp: 228 °C

Req: Sample CCN1CCN(Cc2ccc(NC(=O)Nc3ccc(Oc4cc(NC(=O)OC)ncn4)cc3)cc2C(F)(F)F)CC1 — what was its melting point?
Resp: 191 to 193 °C

Req: Sample Cc1ncn(Cc2ccc(NC(=O)Nc3ccc(Oc4cc(Cl)ncn4)cc3)cc2C(F)(F)F)c1C — what was its melting point?
Resp: 195 to 196 °C

Req: Sample Nc1cc(Oc2ccc(NC(=O)Nc3ccc(CN4CCNCC4)c(C(F)(F)F)c3)cc2)ncn1 — what was its melting point?
Resp: 153 to 155 °C

Req: Sample Nc1cc(Oc2ccc(NC(=O)Nc3ccc(-c4cccnc4)c(C(F)(F)F)c3)cc2)ncn1 — what was its melting point?
Resp: 132 to 135 °C

Req: Sample CCN(CC)Cc1cc(NC(=O)Nc2ccc(Oc3cc(N)ncn3)cc2)cc(C(F)(F)F)c1 — what was its melting point?
Resp: 63 to 65 °C

* * *

- system: RET (Homo sapiens, UniProt P07949)
- Sequence (P07949 658-1072 isoform P07949-2): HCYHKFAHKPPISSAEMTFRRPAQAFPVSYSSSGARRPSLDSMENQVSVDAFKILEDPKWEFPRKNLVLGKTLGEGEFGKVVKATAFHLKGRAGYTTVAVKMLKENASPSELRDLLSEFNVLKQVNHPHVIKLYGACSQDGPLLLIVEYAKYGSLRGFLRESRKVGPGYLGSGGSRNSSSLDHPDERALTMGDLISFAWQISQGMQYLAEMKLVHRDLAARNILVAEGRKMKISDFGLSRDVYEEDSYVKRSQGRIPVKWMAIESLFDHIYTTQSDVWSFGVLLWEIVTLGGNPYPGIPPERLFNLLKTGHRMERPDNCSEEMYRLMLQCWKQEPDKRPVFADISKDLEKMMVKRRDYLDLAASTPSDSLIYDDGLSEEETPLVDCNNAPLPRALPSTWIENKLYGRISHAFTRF
measured_metric: pIC50
pIC50 (log units): -log10 of the concentration in mol/L.

Here are 3 molecules together with their reported answers.
• CC(C)(C)N1CCN(Cc2ccc(NC(=O)Nc3ccc(Oc4ccnc(N)n4)cc3)cc2C(F)(F)F)CC1 [Example 50] = 6.25
• Cc1ncn(Cc2ccc(NC(=O)Nc3ccc(Oc4ccnc(N)n4)cc3)cc2C(F)(F)F)c1C [Example 51a.1] = 6.07
• CN1CCN(Cc2ccc(NC(=O)Nc3ccc(Oc4ccnc(N)n4)cc3)cc2C(F)(F)F)CC1 [Example 52a] = 6.74

Next, consider the following molecule.
Req: Provide value of pIC50 for this record tested with RET (Homo sapiens, UniProt P07949): CCN1CCN(Cc2ccc(NC(=O)Nc3ccc(Oc4ccnc(NC)n4)cc3)cc2C(F)(F)F)CC1 [Example 53c]
Resp: 6.46

* * *

Endpoint: pIC50. System: Flt-3 (Homo sapiens, UniProt P36888). Items follow.
pIC50 (log units): -log10 of the concentration in mol/L.

* CNc1cc(Oc2ccc(NC(=O)Nc3ccc(Cn4cnc(C)c4C)c(C(F)(F)F)c3)cc2)ncn1 [Example 34d.1] | 6.17
* CN(C)CCCN(C)Cc1ccc(NC(=O)Nc2ccc(Oc3cc(N)ncn3)cc2)cc1C(F)(F)F [Example 34n.3] | 6.70
* CCN1CCN(Cc2ccc(NC(=O)Nc3ccc(Oc4cc(NC)ncn4)cc3)cc2C)CC1 [Example 34g.1] | 6.52

Next, consider the following compound.
Req: Sample CNc1cc(Oc2ccc(NC(=O)Nc3ccc(-c4ccncc4)c(C(F)(F)F)c3)cc2)ncn1 [Example 63] — what was its pIC50?
Resp: 6.85

* * *

- system: Flt-3 (Homo sapiens, UniProt P36888)
- Construct: amino acids 563-993 of the cytoplasmic kinase domain of human Flt-3; made in house; host or cells: Sf9 insect cells (baculovirus, vector pFbacG01)
- assay_explanation: Flt-3 kinase inhibition (GST-Flt-3, 33P incorporation into poly(Glu,Tyr))
- Type: biochemical
Counter-ions that a name gives are not always drawn.
measured_metric: pIC50
pIC50 (log units): -log10 of the concentration in mol/L.

Here are 3 compounds together with their reported answers.
* O=C(Nc1ccc(Oc2cc(NC3CCC(O)CC3)ncn2)cc1)Nc1ccc(N2CCOCC2)c(C(F)(F)F)c1 (stereo not shown) [Example 55d] | 6.01
* CNc1cc(Oc2ccc(NC(=O)Nc3ccc(CN4CCN(C(C)(C)C)CC4)c(C(F)(F)F)c3)cc2)ncn1 [Example 34c.1] | 6.27
* Nc1cc(Oc2ccc(NC(=O)Nc3ccc(N4CCC(N5CCCCC5)CC4)c(C(F)(F)F)c3)cc2)ncn1 [Example 34s.2] | 6.62

Req: Sample CNc1cc(Oc2ccc(NC(=O)Nc3ccc(CN4CCN(C(C)C)CC4)c(C(F)(F)F)c3)cc2)ncn1 [Example 16, trifluoroacetate] — what was its pIC50?
Resp: 6.44

Req: Sample CCN1CCN(Cc2ccc(NC(=O)Nc3ccc(Oc4ccnc(NC)n4)cc3)cc2)CC1 [Example 51e.2] — what was its pIC50?
Resp: 6.04

Req: Sample CN1CCN(Cc2cc(NC(=O)Nc3ccc(Oc4cc(Cl)ncn4)cc3)cc(C(F)(F)F)c2)CC1 [Example 9] — what was its pIC50?
Resp: 6.49

Req: Sample CNc1nccc(Oc2ccc(NC(=O)Nc3ccc(Cn4ccnc4C)c(C(F)(F)F)c3)cc2)n1 [Example 51b.2] — what was its pIC50?
Resp: 6.77

* * *

- Tested on: D835Y-Ba/F3
- assay_setup: Mus musculus, BaF3, 48 h, read-out: Inhibition of Flt-3 dependent Proliferation (ED50) D835-mutant
measured_metric: pEC50
pEC50 (log units): -log10 of the concentration in mol/L.

Here are 3 compounds together with their reported answers.
* CCN1CCN(Cc2ccc(NC(=O)Nc3ccc(Oc4ccnc(NC)n4)cc3)cc2C(F)(F)F)CC1 [Example 53c] | 8.48
* CC(C)N1CCN(Cc2ccc(NC(=O)Nc3ccc(Oc4ccnc(N)n4)cc3)cc2C(F)(F)F)CC1 | 9.30
* CNc1nccc(Oc2ccc(NC(=O)Nc3ccc(CN4CCN(C(C)(C)C)CC4)c(C(F)(F)F)c3)cc2)n1 | 7.93

Next, consider the following compound.
Req: Sample CNc1nccc(Oc2ccc(NC(=O)Nc3ccc(CN4CCN(C(C)C)CC4)c(C(F)(F)F)c3)cc2)n1 — what was its pEC50?
Resp: 8.41

* * *

- system: UniProt P36888
- Sequence (P36888 563-993): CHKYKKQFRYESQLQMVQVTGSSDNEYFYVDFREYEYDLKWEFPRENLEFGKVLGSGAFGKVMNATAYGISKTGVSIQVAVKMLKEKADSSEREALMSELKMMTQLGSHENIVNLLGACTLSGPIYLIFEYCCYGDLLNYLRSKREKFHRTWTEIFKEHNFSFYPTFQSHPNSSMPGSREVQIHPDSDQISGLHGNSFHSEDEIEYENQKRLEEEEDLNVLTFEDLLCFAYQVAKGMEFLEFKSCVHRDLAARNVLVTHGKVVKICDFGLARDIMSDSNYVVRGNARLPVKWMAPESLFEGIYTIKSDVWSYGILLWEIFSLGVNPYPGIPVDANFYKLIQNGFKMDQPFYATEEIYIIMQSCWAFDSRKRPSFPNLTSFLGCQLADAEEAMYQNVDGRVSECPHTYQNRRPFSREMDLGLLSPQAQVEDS
measured_metric: pIC50
pIC50 (log units): -log10 of the concentration in mol/L.

Here are 2 compounds together with their reported answers.
* Cc1nccn1Cc1ccc(NC(=O)Nc2ccc(Oc3ccnc(N)n3)cc2)cc1C(F)(F)F [Example 51b.1] | 6.89
* CCN(CC)Cc1ccc(NC(=O)Nc2ccc(Oc3cc(N)ncn3)cc2)cc1C(F)(F)F [Example 34m.3] | 6.70

Next, consider the following compound.
Req: Sample CNc1nccc(Oc2ccc(NC(=O)Nc3ccc(N4CCN(C)CC4)c(C(F)(F)F)c3)cc2)n1 [Example 53d] — what was its pIC50?
Resp: 6.72
